assay: Circular dichroism, secondary structure content (CONTIN/LL); assay type: physicochemical; details: 50% TFE, 0.3mg in 1mL, 20°C, far-UV CD, CONTIN/LL
Ends that are not written are not given here.
reported.metric: Secondary Structure Random coil (%)
Give bare numbers, in %.

{"primary.sequence": "KRRWRFVWMNPKKKRKVPPWPYLLWWHWLQLKPGQPMY [chimera]", "result.number": 48}

Okay, here is my list. What is Secondary Structure Random coil for each of these?
1. FRKWRRKPKKKRKVWWRKVKRRWHWLQLKPGQPMY [NLS-α-CE]
2. PKKKRKVWHWLQLKPGQPMY [NLS-α]
3. WRFVWMNPKKKRKV [NLS-CE, optimized NLS fitting CPP rules]

Ans.
1. 59
2. 59
3. 61

###

experiment: Circular dichroism, secondary structure content (CONTIN/LL); format: physicochemical; settings: 50% TFE, 0.3mg in 1mL, 20°C, far-UV CD, CONTIN/LL
Ends that are not written are not given here.
Would you kindly list Secondary Structure β-Sheet for each of these sequences?
One number for each entry, in %.

Below: 3 sequences and their reported Secondary Structure β-Sheet.
{"primary.sequence": "KRRWRFVWMNPKKKRKVPPWPYLLWWHWLQLKPGQPMY [chimera]", "unit.of.measurement": "%", "Secondary Structure β-Sheet": 28}
{"primary.sequence": "PKKKRKVWHWLQLKPGQPMY [NLS-α]", "unit.of.measurement": "%", "Secondary Structure β-Sheet": 35}
{"primary.sequence": "WRFVWMNPKKKRKV [NLS-CE, optimized NLS fitting CPP rules]", "unit.of.measurement": "%", "Secondary Structure β-Sheet": 34}

As a next step, examine the sequence that follows.
Qu. In one line, give reported Secondary Structure β-Sheet of the entry FRKWRRKPKKKRKVWWRKVKRRWHWLQLKPGQPMY [NLS-α-CE] .
Ans. 31

###

experiment: Circular dichroism, secondary structure content (CONTIN/LL); format: physicochemical; conditions: 50% TFE, 0.3mg in 1mL, 20°C, far-UV CD, CONTIN/LL
Ends that are not written are not given here.
reported.metric: Secondary Structure α-Helix (%)
One number for each entry, in %.

Below: 3 sequences and their reported Secondary Structure α-Helix.
{"primary.sequence": "KRRWRFVWMNPKKKRKVPPWPYLLWWHWLQLKPGQPMY [chimera]", "Secondary Structure α-Helix (%)": 24}
{"primary.sequence": "FRKWRRKPKKKRKVWWRKVKRRWHWLQLKPGQPMY [NLS-α-CE]", "Secondary Structure α-Helix (%)": 10}
{"primary.sequence": "WRFVWMNPKKKRKV [NLS-CE, optimized NLS fitting CPP rules]", "Secondary Structure α-Helix (%)": 5}

As a next step, examine the sequence that follows.
Qu. In one line, give reported Secondary Structure α-Helix of the entry PKKKRKVWHWLQLKPGQPMY [NLS-α] .
Ans. 6

###

assay: Circular dichroism, secondary structure content (CONTIN/LL); type: physicochemical; settings: water, 0.3mg in 1mL, 20°C, far-UV CD, CONTIN/LL
Ends that are not written are not given here.
Would you kindly list Secondary Structure α-Helix for each of these sequences?
One number for each entry, in %.

Below: 3 sequences and their reported Secondary Structure α-Helix.
{"primary.sequence": "PKKKRKVWHWLQLKPGQPMY [NLS-α]", "reported.metric": "Secondary Structure α-Helix", "result.number": 5}
{"primary.sequence": "FRKWRRKPKKKRKVWWRKVKRRWHWLQLKPGQPMY [NLS-α-CE]", "reported.metric": "Secondary Structure α-Helix", "result.number": 6}
{"primary.sequence": "WRFVWMNPKKKRKV [NLS-CE, optimized NLS fitting CPP rules]", "reported.metric": "Secondary Structure α-Helix", "result.number": 6}

As a next step, examine the sequence that follows.
Qu. In one line, give reported Secondary Structure α-Helix of the entry KRRWRFVWMNPKKKRKVPPWPYLLWWHWLQLKPGQPMY [chimera] .
Ans. 8
